Value source: the RNAGym collection of RNA variant scans (doi:10.1002/anie.201605470)

B1: Osa-1-4 twister ribozyme (parent)
chain: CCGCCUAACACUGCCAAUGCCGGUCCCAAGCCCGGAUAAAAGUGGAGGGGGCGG

Variants of: B1
experimentDescription: self-cleavage, relative activity (ratio to wild type); higher = more cleavage; co-transcriptional
propertyMeasured: self-cleavage
Format: numeric value only, no unit, no commentary.

Here are 2 variants together with their reported answers.
>>> number("CCGCCUAACGCUGCCAAUGCCGGUCCCAAGCCCGGAUAAAAGUGUAGGGGGCGG")
0.1
>>> number("CCGCCUAACACUGCCAAUGACGGUCCCAAGUCCGGAUAAAAGUGGAGGGGGCGG")
0.81

Proceeding to the next variant to report its self-cleavage.
Record summary for `CCGCCUAGCACCGCCAAUGCCGGUCCCAAGCCCGGAUAAAAGUGGAGGGGGCGG` : reported self-cleavage = 0.12
